TESTED TARGET: NAMPT (Homo sapiens)
Sequence (P43490 whole entry): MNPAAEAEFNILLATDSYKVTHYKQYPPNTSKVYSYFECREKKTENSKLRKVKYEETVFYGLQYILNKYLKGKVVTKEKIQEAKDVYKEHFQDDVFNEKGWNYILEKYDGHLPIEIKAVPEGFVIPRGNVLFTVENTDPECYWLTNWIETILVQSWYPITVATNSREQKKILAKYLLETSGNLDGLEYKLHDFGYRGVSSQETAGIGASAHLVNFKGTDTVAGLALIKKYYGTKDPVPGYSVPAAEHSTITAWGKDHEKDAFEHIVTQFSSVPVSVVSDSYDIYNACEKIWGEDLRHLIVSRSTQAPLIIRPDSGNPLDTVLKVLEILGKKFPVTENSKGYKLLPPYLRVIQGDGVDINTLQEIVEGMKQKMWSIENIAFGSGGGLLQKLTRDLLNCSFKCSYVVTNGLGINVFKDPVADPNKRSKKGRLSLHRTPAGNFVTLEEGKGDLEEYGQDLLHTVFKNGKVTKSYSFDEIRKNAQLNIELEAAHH
IC50 less than 0.5 nM is yes (1); IC50 greater than or equal to 0.5 nM is no (0).

Ask | Is IC50 strictly under 0.5 nM for the entry `O=C(NCc1ccn2ccnc2c1)c1ccc(C2=CCN(C(=O)c3ccccc3)CC2)o1` ?
Reply | no (0)

Ask | is_below(IC50, 0.5 nM) for Cc1ccc(C(=O)N2CCC(c3ccc(C(=O)NCc4ccn5ccnc5c4)s3)C2)cc1 (stereo not shown) ?
Reply | no (0)

Ask | Is IC50 strictly under 0.5 nM for the entry `O=C(NCc1ccn2ccnc2c1)Nc1ccc(OC2CCN(C(=O)[C@H]3CCCO3)CC2)cc1` ?
Reply | yes (1)

Ask | Does this molecule meet the criterion IC50 < 0.5 nM? O=C(NCc1ccn2ccnc2c1)c1cnc(N2CC(CO)OC2=O)s1 (stereo not shown)
Reply | no (0)

Ask | Lab note: confirm whether the reported IC50 for this molecule is below 0.5 nM, equality not counting. molecule: O=C(NCc1ccc2nccn2c1)c1ccc(-c2cnn(CC3CCCCO3)c2)s1 (stereo not shown)
Reply | yes (1)

Ask | Strictly below 0.5 nM in IC50? `CC(C)Cn1cc(-c2ccc(C(=O)NCc3ccc4nccn4c3)o2)cn1`
Reply | yes (1)

Ask | Item `O=C(NCc1ccn2ccnc2c1)c1ccc(C2CCN(C(=O)c3cccnc3)CC2)cc1` : IC50 beneath 0.5 nM, strictly?
Reply | yes (1)

Ask | Answer whether the molecule `Cn1nccc1C(=O)N1CCC(c2ccc(C(=O)NCc3ccn4ccnc4c3)cc2)CC1` has IC50 strictly less than 0.5 nM
Reply | yes (1)

Ask | A record lists `O=C(NCc1ccn2ccnc2c1)c1ccc(C2CCN(C(=O)c3cccc(F)c3)CC2)cc1` . Is its IC50 below 0.5 nM?
Reply | yes (1)

Ask | Field: below-cutoff. Rule: recorded IC50 strictly less than 0.5 nM. Subject: `CC(C)OC[C@H]1CN(c2ncc(C(=O)NCc3ccn4ccnc4c3)s2)C(=O)O1`
Reply | yes (1)

Ask | Determine whether this molecule shows IC50 lower than 0.5 nM (ties excluded): `O=C(NCc1ccc2nccn2c1)c1ccc(OC2CCN(C(=O)[C@H]3CCCO3)CC2)cc1`
Reply | no (0)

Ask | Hello, is IC50 of the following molecule strictly smaller than 0.5 nM? `O=C(NCc1ccn2ccnc2c1)Nc1ccc(OC2CCN(C(=O)[C@@H]3CCCO3)CC2)cc1`
Reply | yes (1)

Ask | API: query returns whether the molecule falls strictly under 0.5 nM in IC50. Query: `O=C(NCc1ccn2ccnc2c1)c1ccc(C2CCN(S(=O)(=O)c3ccccc3)CC2)cc1`
Reply | no (0)

Ask | Report whether reported IC50 is lower than 0.5 nM (strictly) for O=C(NCCCCC1CCN(C(=O)CC2CCOC2)CC1)Nc1ccc2nccn2c1 (stereo not shown)
Reply | yes (1)

Ask | # TODO verify IC50 < 0.5 nM strictly for this molecule: O=C(NCc1ccn2ccnc2c1)Nc1ccc(O[C@@H]2CCN(C(=O)C3CCOC3)C2)cc1 (stereo partly shown)
Reply | yes (1)

Ask | A record lists Cc1ccccc1C(=O)N1CCC(c2ccc(C(=O)NCc3ccn4ccnc4c3)cc2)C1 (stereo not shown) . Is its IC50 below 0.5 nM?
Reply | no (0)

Ask | Lab log: compare recorded IC50 with 0.5 nM; is it strictly lower for `CC(C)C(=O)NC1(c2ccc(C(=O)NCc3ccn4ccnc4c3)s2)CCC1` ?
Reply | no (0)

Ask | is_below(IC50, 0.5 nM) for `O=C(NCc1ccn2ccnc2c1)c1ccc(C2CN(C(=O)c3cccnc3)C2)cc1` ?
Reply | no (0)

Ask | For this molecule, is IC50 lower than 0.5 nM? `CC(C)(O)C(=O)N1CC(Oc2ccc(NC(=O)NCc3ccn4ccnc4c3)cc2)C1`
Reply | yes (1)

Ask | Strictly below 0.5 nM: is that where IC50 of O=C(NCc1ccn2ccnc2c1)c1ccc(C2CCN(C(=O)CC3CCCO3)CC2)cc1 (stereo not shown) sits?
Reply | yes (1)

Ask | Bench note: check whether `O=C(NCc1ccn2ccnc2c1)Nc1ccc(C2CCN(C(=O)c3cc(F)ccc3F)CC2)cc1` shows IC50 below 0.5 nM
Reply | no (0)

Ask | Here's an entry: `CC(C)Cc1ccc(-c2ccc(C(=O)NCc3ccn4ccnc4c3)o2)cc1` . Is its IC50 below 0.5 nM?
Reply | no (0)

Ask | In plain terms, does `O=C(NCc1ccn2ccnc2c1)c1ccc(C2=CCN(C(=O)CC3CC3)CC2)o1` come in under 0.5 nM for IC50?
Reply | no (0)

Ask | For this molecule, is IC50 lower than 0.5 nM? `O=C(NCc1ccn2ccnc2c1)c1ccc(O[C@H]2CCN(C(=O)[C@H]3CCOC3)C2)cc1`
Reply | no (0)

Ask | I'd appreciate it if you could check whether O=C(NCc1ccn2ccnc2c1)c1ccc(C2CCN(C(=O)c3cccc(Cl)c3)C2)s1 (stereo not shown) has IC50 smaller than 0.5 nM.
Reply | no (0)

Where do these numbers come from? They come from patent US9187472B2.
